molecular target: FXR protein (Homo sapiens, UniProt Q96RI1); experiment: Surface plasmon resonance (SPR), FXR immobilized on CM5 chip; type: binding; details: SPR steady-state affinity fit
Sequence (Q96RI1 whole entry, species assumed): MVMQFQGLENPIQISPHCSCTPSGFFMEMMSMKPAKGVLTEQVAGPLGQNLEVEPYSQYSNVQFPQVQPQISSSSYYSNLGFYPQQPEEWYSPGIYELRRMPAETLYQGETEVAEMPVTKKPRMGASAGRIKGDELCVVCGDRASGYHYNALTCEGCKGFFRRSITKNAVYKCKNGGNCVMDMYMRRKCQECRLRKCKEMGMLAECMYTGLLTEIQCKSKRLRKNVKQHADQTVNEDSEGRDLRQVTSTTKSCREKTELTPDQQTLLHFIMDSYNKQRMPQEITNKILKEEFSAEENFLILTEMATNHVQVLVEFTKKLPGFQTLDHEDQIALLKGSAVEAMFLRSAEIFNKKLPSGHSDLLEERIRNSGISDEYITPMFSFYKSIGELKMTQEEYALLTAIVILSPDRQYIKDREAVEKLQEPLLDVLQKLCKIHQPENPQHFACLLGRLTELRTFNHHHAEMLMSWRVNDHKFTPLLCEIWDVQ
reported property: Rmax (RU)
Numbers only here, please. The scale is RU.

Below: 2 compounds and their reported Rmax.
CC[C@H]1[C@@H](O)[C@@H]2[C@H](CC[C@]3(C)[C@@H]([C@H](C)CCC(=O)O)CC[C@@H]23)[C@@]2(C)CC[C@@H](O)C[C@@H]12 [OCA, Obeticholic acid]
32.0
O=C1C[C@@H](c2ccc(O[C@@H]3O[C@H](CO)[C@@H](O)[C@H](O)[C@H]3O)cc2)Oc2cc(O)ccc21 [Liquiritin]
12.1

Lookup: Param item = COc1ccc([C@@H]2CC(=O)c3c(O)cc(O[C@@H]4O[C@H](CO)[C@@H](O)[C@H](O)[C@H]4O[C@@H]4O[C@@H](C)[C@H](O)[C@@H](O)[C@H]4O)cc3O2)cc1O [Neohesperidin] ; retrieve measured Rmax.
Found: 181.5

Lookup: Param item = COc1ccc([C@@H]2CC(=O)c3c(O)cc(O[C@@H]4O[C@H](CO[C@@H]5O[C@@H](C)[C@H](O)[C@@H](O)[C@H]5O)[C@@H](O)[C@H](O)[C@H]4O)cc3O2)cc1O [Hesperidin] ; retrieve measured Rmax.
Found: 49.9

Lookup: Param item = COc1ccc(-c2cc(=O)c3c(OC)c(OC)c(OC)c(OC)c3o2)cc1OC [Nobiletin] ; retrieve measured Rmax.
Found: 210.1

Lookup: Param item = COc1cc(-c2oc3cc(O)cc(O)c3c(=O)c2O)ccc1O [Isorhamnetin] ; retrieve measured Rmax.
Found: 20.3
